# Test system: Escherichia coli TOP10
# EXPERIMENT DESCRIPTION: shrunken log2 fold change of peptide-encoding DNA abundance (4.5 h post-induction vs induction); higher = less antimicrobial activity (less host growth inhibition)
# CONDITION LABEL: time post-induction: 4.5 h; library: site-saturation at positions 5, 18, 19, 20

- SEQUENCE INPUT: "RRIRERPPRLPRPRPRPISDPRP"
  STUDY SYSTEM: "Escherichia coli TOP10"
  shrunken log2 fold change: 0.00346
- SEQUENCE INPUT: "RRIRERPPRLPRPRPRPFWPPRP"
  STUDY SYSTEM: "Escherichia coli TOP10"
  shrunken log2 fold change: 0.0458
- SEQUENCE INPUT: "RRIRHRPPRLPRPRPRPSRAPRP"
  STUDY SYSTEM: "Escherichia coli TOP10"
  shrunken log2 fold change: 0.373
- SEQUENCE INPUT: "RRIRCRPPRLPRPRPRPANKPRP"
  STUDY SYSTEM: "Escherichia coli TOP10"
  shrunken log2 fold change: 0.361
- SEQUENCE INPUT: "RRIRHRPPRLPRPRPRPAHYPRP"
  STUDY SYSTEM: "Escherichia coli TOP10"
  shrunken log2 fold change: -0.139
- SEQUENCE INPUT: "RRIRVRPPRLPRPRPRPYEMPRP"
  STUDY SYSTEM: "Escherichia coli TOP10"
  shrunken log2 fold change: -0.311
- SEQUENCE INPUT: "RRIRYRPPRLPRPRPRPCETPRP"
  STUDY SYSTEM: "Escherichia coli TOP10"
  shrunken log2 fold change: 0.00591
- SEQUENCE INPUT: "RRIRNRPPRLPRPRPRPRAPPRP"
  STUDY SYSTEM: "Escherichia coli TOP10"
  shrunken log2 fold change: 0.972
- SEQUENCE INPUT: "RRIRMRPPRLPRPRPRPPFKPRP"
  STUDY SYSTEM: "Escherichia coli TOP10"
  shrunken log2 fold change: 0.173
- SEQUENCE INPUT: "RRIRERPPRLPRPRPRPGMVPRP"
  STUDY SYSTEM: "Escherichia coli TOP10"
  shrunken log2 fold change: 0.217
- SEQUENCE INPUT: "RRIRKRPPRLPRPRPRPKQSPRP"
  STUDY SYSTEM: "Escherichia coli TOP10"
  shrunken log2 fold change: 0.525
- SEQUENCE INPUT: "RRIRNRPPRLPRPRPRPVCYPRP"
  STUDY SYSTEM: "Escherichia coli TOP10"
  shrunken log2 fold change: -0.21
- SEQUENCE INPUT: "RRIRVRPPRLPRPRPRPVKIPRP"
  STUDY SYSTEM: "Escherichia coli TOP10"
  shrunken log2 fold change: -0.29
- SEQUENCE INPUT: "RRIRQRPPRLPRPRPRPRYYPRP"
  STUDY SYSTEM: "Escherichia coli TOP10"
  shrunken log2 fold change: -0.465
- SEQUENCE INPUT: "RRIRPRPPRLPRPRPRPGGPPRP"
  STUDY SYSTEM: "Escherichia coli TOP10"
  shrunken log2 fold change: 0.41
- SEQUENCE INPUT: "RRIRMRPPRLPRPRPRPQDAPRP"
  STUDY SYSTEM: "Escherichia coli TOP10"
  shrunken log2 fold change: 0.0668
- SEQUENCE INPUT: "RRIRMRPPRLPRPRPRPDFIPRP"
  STUDY SYSTEM: "Escherichia coli TOP10"
  shrunken log2 fold change: -0.0216
- SEQUENCE INPUT: "RRIRKRPPRLPRPRPRPYCAPRP"
  STUDY SYSTEM: "Escherichia coli TOP10"
  shrunken log2 fold change: -0.254
- SEQUENCE INPUT: "RRIRVRPPRLPRPRPRPEVGPRP"
  STUDY SYSTEM: "Escherichia coli TOP10"
  shrunken log2 fold change: 0.175
- SEQUENCE INPUT: "RRIRSRPPRLPRPRPRPMEQPRP"
  STUDY SYSTEM: "Escherichia coli TOP10"
  shrunken log2 fold change: -0.00992
- SEQUENCE INPUT: "RRIRDRPPRLPRPRPRPTSIPRP"
  STUDY SYSTEM: "Escherichia coli TOP10"
  shrunken log2 fold change: 0.099
- SEQUENCE INPUT: "RRIRDRPPRLPRPRPRPNRYPRP"
  STUDY SYSTEM: "Escherichia coli TOP10"
  shrunken log2 fold change: -0.0973
- SEQUENCE INPUT: "RRIRCRPPRLPRPRPRPGLSPRP"
  STUDY SYSTEM: "Escherichia coli TOP10"
  shrunken log2 fold change: -0.248
- SEQUENCE INPUT: "RRIRERPPRLPRPRPRPCDQPRP"
  STUDY SYSTEM: "Escherichia coli TOP10"
  shrunken log2 fold change: 0.0916
- SEQUENCE INPUT: "RRIRHRPPRLPRPRPRPGYVPRP"
  STUDY SYSTEM: "Escherichia coli TOP10"
  shrunken log2 fold change: -0.211
- SEQUENCE INPUT: "RRIRVRPPRLPRPRPRPDIVPRP"
  STUDY SYSTEM: "Escherichia coli TOP10"
  shrunken log2 fold change: -0.229
- SEQUENCE INPUT: "RRIRRRPPRLPRPRPRPESRPRP"
  STUDY SYSTEM: "Escherichia coli TOP10"
  shrunken log2 fold change: 0.0681
- SEQUENCE INPUT: "RRIRWRPPRLPRPRPRPWWAPRP"
  STUDY SYSTEM: "Escherichia coli TOP10"
  shrunken log2 fold change: -0.194
- SEQUENCE INPUT: "RRIRMRPPRLPRPRPRPWQEPRP"
  STUDY SYSTEM: "Escherichia coli TOP10"
  shrunken log2 fold change: -0.107
- SEQUENCE INPUT: "RRIRVRPPRLPRPRPRPYPQPRP"
  STUDY SYSTEM: "Escherichia coli TOP10"
  shrunken log2 fold change: -0.349
- SEQUENCE INPUT: "RRIRKRPPRLPRPRPRPFWRPRP"
  STUDY SYSTEM: "Escherichia coli TOP10"
  shrunken log2 fold change: 0.00905
- SEQUENCE INPUT: "RRIRYRPPRLPRPRPRPFDFPRP"
  STUDY SYSTEM: "Escherichia coli TOP10"
  shrunken log2 fold change: -0.409

----------
Recorded measurements of shrunken log2 fold change, one per entry
# Tested on: Escherichia coli TOP10;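 also: peptides expressed intracellularly from a pBAD plasmid library in pooled LB shake-flask culture, induced with 0.3% L-arabinose, DNA abundance read by NGS, three biological replicates, DESeq2 with apeglm shrinkage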
# EXPERIMENT DESCRIPTION: shrunken log2 fold change of peptide-encoding DNA abundance (4.5 h post-induction vs induction); higher = less antimicrobial activity (less host growth inhibition)
# CONDITION LABEL: time post-induction: 4.5 h; library: site-saturation at positions 5, 18, 19, 20
READOUT: shrunken log2 fold change

- SEQUENCE INPUT: "RRIRNRPPRLPRPRPRPFHYPRP"
  STUDY SYSTEM: "Escherichia coli TOP10"
  RESULT VALUE: -0.925
- SEQUENCE INPUT: "RRIRTRPPRLPRPRPRPVPMPRP"
  STUDY SYSTEM: "Escherichia coli TOP10"
  RESULT VALUE: -0.299
- SEQUENCE INPUT: "RRIRLRPPRLPRPRPRPTISPRP"
  STUDY SYSTEM: "Escherichia coli TOP10"
  RESULT VALUE: -0.375
- SEQUENCE INPUT: "RRIRIRPPRLPRPRPRPDNIPRP"
  STUDY SYSTEM: "Escherichia coli TOP10"
  RESULT VALUE: -0.116
- SEQUENCE INPUT: "RRIRVRPPRLPRPRPRPKKDPRP"
  STUDY SYSTEM: "Escherichia coli TOP10"
  RESULT VALUE: -0.262
- SEQUENCE INPUT: "RRIRRRPPRLPRPRPRPDGMPRP"
  STUDY SYSTEM: "Escherichia coli TOP10"
  RESULT VALUE: 0.0388
- SEQUENCE INPUT: "RRIRIRPPRLPRPRPRPYQWPRP"
  STUDY SYSTEM: "Escherichia coli TOP10"
  RESULT VALUE: -0.316
- SEQUENCE INPUT: "RRIRRRPPRLPRPRPRPHSGPRP"
  STUDY SYSTEM: "Escherichia coli TOP10"
  RESULT VALUE: 0.0307
- SEQUENCE INPUT: "RRIRCRPPRLPRPRPRPTGHPRP"
  STUDY SYSTEM: "Escherichia coli TOP10"
  RESULT VALUE: -0.113
- SEQUENCE INPUT: "RRIRDRPPRLPRPRPRPFCQPRP"
  STUDY SYSTEM: "Escherichia coli TOP10"
  RESULT VALUE: -0.00439
- SEQUENCE INPUT: "RRIRVRPPRLPRPRPRPKYFPRP"
  STUDY SYSTEM: "Escherichia coli TOP10"
  RESULT VALUE: -0.239
- SEQUENCE INPUT: "RRIRYRPPRLPRPRPRPQNLPRP"
  STUDY SYSTEM: "Escherichia coli TOP10"
  RESULT VALUE: -0.0535
- SEQUENCE INPUT: "RRIRARPPRLPRPRPRPGNKPRP"
  STUDY SYSTEM: "Escherichia coli TOP10"
  RESULT VALUE: -0.186
- SEQUENCE INPUT: "RRIRLRPPRLPRPRPRPNQGPRP"
  STUDY SYSTEM: "Escherichia coli TOP10"
  RESULT VALUE: -0.148
- SEQUENCE INPUT: "RRIRLRPPRLPRPRPRPEPCPRP"
  STUDY SYSTEM: "Escherichia coli TOP10"
  RESULT VALUE: 0.0808
- SEQUENCE INPUT: "RRIRDRPPRLPRPRPRPLVSPRP"
  STUDY SYSTEM: "Escherichia coli TOP10"
  RESULT VALUE: 0.469
- SEQUENCE INPUT: "RRIRGRPPRLPRPRPRPMIDPRP"
  STUDY SYSTEM: "Escherichia coli TOP10"
  RESULT VALUE: 0.967
- SEQUENCE INPUT: "RRIRKRPPRLPRPRPRPQLEPRP"
  STUDY SYSTEM: "Escherichia coli TOP10"
  RESULT VALUE: 0.327
- SEQUENCE INPUT: "RRIRWRPPRLPRPRPRPWGMPRP"
  STUDY SYSTEM: "Escherichia coli TOP10"
  RESULT VALUE: -0.246
- SEQUENCE INPUT: "RRIRLRPPRLPRPRPRPWQKPRP"
  STUDY SYSTEM: "Escherichia coli TOP10"
  RESULT VALUE: 0.0576
- SEQUENCE INPUT: "RRIRVRPPRLPRPRPRPHSDPRP"
  STUDY SYSTEM: "Escherichia coli TOP10"
  RESULT VALUE: 0.0538
- SEQUENCE INPUT: "RRIRVRPPRLPRPRPRPAPLPRP"
  STUDY SYSTEM: "Escherichia coli TOP10"
  RESULT VALUE: 0.255
- SEQUENCE INPUT: "RRIRHRPPRLPRPRPRPLHYPRP"
  STUDY SYSTEM: "Escherichia coli TOP10"
  RESULT VALUE: -0.284
- SEQUENCE INPUT: "RRIRHRPPRLPRPRPRPTNTPRP"
  STUDY SYSTEM: "Escherichia coli TOP10"
  RESULT VALUE: -0.384
- SEQUENCE INPUT: "RRIRTRPPRLPRPRPRPMGIPRP"
  STUDY SYSTEM: "Escherichia coli TOP10"
  RESULT VALUE: 0.049
- SEQUENCE INPUT: "RRIRYRPPRLPRPRPRPLRRPRP"
  STUDY SYSTEM: "Escherichia coli TOP10"
  RESULT VALUE: 0.17
- SEQUENCE INPUT: "RRIRIRPPRLPRPRPRPTTWPRP"
  STUDY SYSTEM: "Escherichia coli TOP10"
  RESULT VALUE: -0.165
- SEQUENCE INPUT: "RRIRHRPPRLPRPRPRPRCIPRP"
  STUDY SYSTEM: "Escherichia coli TOP10"
  RESULT VALUE: -0.0991
- SEQUENCE INPUT: "RRIRHRPPRLPRPRPRPILGPRP"
  STUDY SYSTEM: "Escherichia coli TOP10"
  RESULT VALUE: -0.0179
- SEQUENCE INPUT: "RRIRHRPPRLPRPRPRPETLPRP"
  STUDY SYSTEM: "Escherichia coli TOP10"
  RESULT VALUE: -0.18
- SEQUENCE INPUT: "RRIRYRPPRLPRPRPRPCHLPRP"
  STUDY SYSTEM: "Escherichia coli TOP10"
  RESULT VALUE: -0.019
- SEQUENCE INPUT: "RRIRGRPPRLPRPRPRPYPQPRP"
  STUDY SYSTEM: "Escherichia coli TOP10"
  RESULT VALUE: 0.12
